Measured %-inhibition of ROS, listed per entry.
# TEST_TARGET: panel of more than 300 wild-type and mutant kinases (313 kinase panel) (Homo sapiens)
# PROTOCOL_NOTES: Kinase profiling in a biochemical assay panel (mobility shift assays and ELISA), %-inhibition at 1 μM; selectivity entropy
# EXPERIMENTAL_PARAMETERS: kinase ROS; 1 μM
Express it in %; write the number only.

Look over these answered cases.
GIVEN_SMILES	UNIT_TEXT	%-inhibition of ROS
COc1cc2c(Nc3ccc(Br)cc3F)ncnc2cc1OCC1CCN(C)CC1	%	48
CO[C@H]1C[C@@H]2CC[C@@H](C)[C@@](O)(O2)C(=O)C(=O)N2CCCC[C@H]2C(=O)O[C@H]([C@H](C)C[C@@H]2CC[C@@H](OCCO)[C@H](OC)C2)CC(=O)[C@H](C)/C=C(\C)[C@@H](O)[C@@H](OC)C(=O)[C@H](C)C[C@H](C)/C=C/C=C/C=C/1C	%	-0.608
O=S(=O)(c1cccc2cnccc12)N1CCCNCC1	%	4.27

Requested read-out: %-inhibition of ROS. Entry: CO[C@H]1C[C@@H]2CC[C@@H](C)[C@@](O)(O2)C(=O)C(=O)N2CCCC[C@H]2C(=O)O[C@H]([C@H](C)C[C@@H]2CC[C@@H](OC(=O)C(C)(CO)CO)[C@H](OC)C2)CC(=O)[C@H](C)/C=C(\C)[C@@H](O)[C@@H](OC)C(=O)[C@H](C)C[C@H](C)/C=C/C=C/C=C/1C
-2

// lookup %-inhibition of ROS for CS(=O)(=O)CCNCc1ccc(-c2ccc3ncnc(Nc4ccc(OCc5cccc(F)c5)c(Cl)c4)c3c2)o1
5.46

Given CC(C)(C)c1nc(-c2cccc(NS(=O)(=O)c3c(F)cccc3F)c2F)c(-c2ccnc(N)n2)s1 , state its recorded %-inhibition of ROS.
8.55

----------
Items are presented alongside their recorded %-inhibition of NEK7.
# TEST_TARGET: panel of more than 300 wild-type and mutant kinases (313 kinase panel) (Homo sapiens)
# PROTOCOL_NOTES: Kinase profiling in a biochemical assay panel (mobility shift assays and ELISA), %-inhibition at 1 μM; selectivity entropy
# EXPERIMENTAL_PARAMETERS: kinase NEK7; 1 μM
Report the value in % with no unit label.

COMPOUND	TEST_TARGET	UNIT_TEXT	%-inhibition of NEK7
C[C@@H](Oc1cc(-c2cnn(C3CCNCC3)c2)cnc1N)c1c(Cl)ccc(F)c1Cl [crizotinib]	panel of more than 300 wild-type and mutant kinases (313 kinase panel) (Homo sapiens)	%	-5.3
CC(=O)Nc1cccc(-n2c(=O)n(C3CC3)c(=O)c3c(Nc4ccc(I)cc4F)n(C)c(=O)c(C)c32)c1 [trametinib]	panel of more than 300 wild-type and mutant kinases (313 kinase panel) (Homo sapiens)	%	1.63
COc1cc2nccc(Oc3ccc(NC(=O)C4(C(=O)Nc5ccc(F)cc5)CC4)cc3)c2cc1OC [cabozantinib]	panel of more than 300 wild-type and mutant kinases (313 kinase panel) (Homo sapiens)	%	-6

Quick one: %-inhibition of NEK7 for CO[C@H]1C[C@@H]2CC[C@@H](C)[C@@](O)(O2)C(=O)C(=O)N2CCCC[C@H]2C(=O)O[C@H]([C@H](C)C[C@@H]2CC[C@@H](OCCO)[C@H](OC)C2)CC(=O)[C@H](C)/C=C(\C)[C@@H](O)[C@@H](OC)C(=O)[C@H](C)C[C@H](C)/C=C/C=C/C=C/1C [everolimus] ?
-11

Any idea what its %-inhibition of NEK7 is? The compound is CO[C@H]1C[C@@H]2CC[C@@H](C)[C@@](O)(O2)C(=O)C(=O)N2CCCC[C@H]2C(=O)O[C@H]([C@H](C)C[C@@H]2CC[C@@H](OC(=O)C(C)(CO)CO)[C@H](OC)C2)CC(=O)[C@H](C)/C=C(\C)[C@@H](O)[C@@H](OC)C(=O)[C@H](C)C[C@H](C)/C=C/C=C/C=C/1C [temsirolimus]
-8

Given CNC(=O)c1cc(Oc2ccc(NC(=O)Nc3ccc(Cl)c(C(F)(F)F)c3)c(F)c2)ccn1 [regorafenib] , state its recorded %-inhibition of NEK7.
-13

Endpoint output: %-inhibition of NEK7 of Cc1cn(-c2cc(NC(=O)c3ccc(C)c(Nc4nccc(-c5cccnc5)n4)c3)cc(C(F)(F)F)c2)cn1 [nilotinib] . Value?
-3.77

----------
# TEST_TARGET: panel of more than 300 wild-type and mutant kinases (313 kinase panel) (Homo sapiens)
# PROTOCOL_NOTES: Kinase profiling in a biochemical assay panel (mobility shift assays and ELISA), %-inhibition at 1 μM; selectivity entropy
# EXPERIMENTAL_PARAMETERS: kinase PKACβ; 1 μM
READOUT_NAME: %-inhibition of PKACβ (%)
Could you give me the number in %? Just the number is fine.

Look over these answered cases.
COMPOUND	READOUT_NAME	EXPERIMENTAL_VALUE
CC(=O)Nc1cccc(-n2c(=O)n(C3CC3)c(=O)c3c(Nc4ccc(I)cc4F)n(C)c(=O)c(C)c32)c1	%-inhibition of PKACβ	-5
COc1cc2c(Nc3ccc(Br)cc3F)ncnc2cc1OCC1CCN(C)CC1	%-inhibition of PKACβ	-0.0886
COc1cc2nccc(Oc3ccc(NC(=O)C4(C(=O)Nc5ccc(F)cc5)CC4)cc3)c2cc1OC [cabozantinib]	%-inhibition of PKACβ	-4.25
C[C@@H](Oc1cc(-c2cnn(C3CCNCC3)c2)cnc1N)c1c(Cl)ccc(F)c1Cl	%-inhibition of PKACβ	-2.3
CCCS(=O)(=O)Nc1ccc(F)c(C(=O)c2c[nH]c3ncc(-c4ccc(Cl)cc4)cc23)c1F	%-inhibition of PKACβ	2.66
CS(=O)(=O)CCNCc1ccc(-c2ccc3ncnc(Nc4ccc(OCc5cccc(F)c5)c(Cl)c4)c3c2)o1	%-inhibition of PKACβ	-3
COc1cc(Nc2c(C#N)cnc3cc(OCCCN4CCN(C)CC4)c(OC)cc23)c(Cl)cc1Cl	%-inhibition of PKACβ	52
CO[C@H]1C[C@@H]2CC[C@@H](C)[C@@](O)(O2)C(=O)C(=O)N2CCCC[C@H]2C(=O)O[C@H]([C@H](C)C[C@@H]2CC[C@@H](OC(=O)C(C)(CO)CO)[C@H](OC)C2)CC(=O)[C@H](C)/C=C(\C)[C@@H](O)[C@@H](OC)C(=O)[C@H](C)C[C@H](C)/C=C/C=C/C=C/1C	%-inhibition of PKACβ	-6

// below: %-inhibition of PKACβ requested for another compound
Would you mind telling me what %-inhibition of PKACβ value was observed for Cc1nc(Nc2ncc(C(=O)Nc3c(C)cccc3Cl)s2)cc(N2CCN(CCO)CC2)n1 ?
-1.68

----------
# Tested on: forty-four human cancer cell lines
# PROTOCOL_NOTES: Cell proliferation assay (ATPlite, 72 hours) in the 44 cell line Oncolines panel
# Assay type: cell-based
# EXPERIMENTAL_PARAMETERS: Homo sapiens, SW480, cell line SW480; read-out: cell panel IC50, SW480
Catalogue of pIC50 values
Scale: negative log10 of molar concentration, which is what pIC50 denotes.

Recorded pIC50, per entry:
GIVEN_SMILES	pIC50
CC[C@]1(O)C[C@H]2CN(CCc3c([nH]c4ccccc34)[C@@](C(=O)OC)(c3cc4c(cc3OC)N(C=O)[C@H]3[C@@](O)(C(=O)OC)[C@H](OC(C)=O)[C@]5(CC)C=CCN6CC[C@]43[C@@H]65)C2)C1	8.15
O=c1[nH]cc(F)c(=O)[nH]1	5.76

Consider the compound CC(=O)O[C@@]12CO[C@@H]1C[C@H](O)[C@@]1(C)C(=O)[C@H](O)C3=C(C)[C@@H](OC(=O)[C@H](O)[C@@H](NC(=O)OC(C)(C)C)c4ccccc4)C[C@@](O)([C@@H](OC(=O)c4ccccc4)[C@H]21)C3(C)C and give its measured pIC50.
8.48

Look up pIC50 for this compound: CO[C@H]1C[C@@H]2CC[C@@H](C)[C@@](O)(O2)C(=O)C(=O)N2CCCC[C@H]2C(=O)O[C@H]([C@H](C)C[C@@H]2CC[C@@H](OCCO)[C@H](OC)C2)CC(=O)[C@H](C)/C=C(\C)[C@@H](O)[C@@H](OC)C(=O)[C@H](C)C[C@H](C)/C=C/C=C/C=C/1C
4.83

----------
%-inhibition of MARK3: recorded values
# TEST_TARGET: panel of more than 300 wild-type and mutant kinases (313 kinase panel) (Homo sapiens, UniProt P27448)
# Sequence (P27448 whole entry, change not shown): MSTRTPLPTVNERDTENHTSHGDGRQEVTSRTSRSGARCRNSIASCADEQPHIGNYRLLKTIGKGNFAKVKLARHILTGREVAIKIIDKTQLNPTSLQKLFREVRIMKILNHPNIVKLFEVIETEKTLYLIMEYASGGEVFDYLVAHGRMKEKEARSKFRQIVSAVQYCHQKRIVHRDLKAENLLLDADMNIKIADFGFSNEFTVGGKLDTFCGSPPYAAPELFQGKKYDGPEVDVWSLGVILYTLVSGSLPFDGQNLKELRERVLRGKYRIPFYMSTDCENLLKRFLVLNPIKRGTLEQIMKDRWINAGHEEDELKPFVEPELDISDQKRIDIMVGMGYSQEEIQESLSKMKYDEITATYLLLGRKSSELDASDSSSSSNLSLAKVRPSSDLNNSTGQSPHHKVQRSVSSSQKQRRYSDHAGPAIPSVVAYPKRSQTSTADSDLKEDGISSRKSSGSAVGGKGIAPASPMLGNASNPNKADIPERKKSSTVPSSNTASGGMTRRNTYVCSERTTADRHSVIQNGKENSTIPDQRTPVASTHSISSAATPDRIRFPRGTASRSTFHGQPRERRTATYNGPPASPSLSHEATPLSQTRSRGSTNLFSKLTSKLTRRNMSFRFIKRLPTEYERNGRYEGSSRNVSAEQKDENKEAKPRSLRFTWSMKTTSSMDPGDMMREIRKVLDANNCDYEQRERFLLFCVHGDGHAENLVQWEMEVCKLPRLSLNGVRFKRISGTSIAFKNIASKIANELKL
# PROTOCOL_NOTES: Kinase profiling in a biochemical assay panel (mobility shift assays and ELISA), %-inhibition at 1 μM; selectivity entropy
# EXPERIMENTAL_PARAMETERS: kinase MARK3; compound at 1 μM
Report only the number, with the unit % understood.

// below: answered molecules
MOLECULE	UNIT_TEXT	%-inhibition of MARK3
COc1cc2nccc(Oc3ccc(NC(=O)C4(C(=O)Nc5ccc(F)cc5)CC4)cc3)c2cc1OC [cabozantinib]	%	-3
CO[C@H]1C[C@@H]2CC[C@@H](C)[C@@](O)(O2)C(=O)C(=O)N2CCCC[C@H]2C(=O)O[C@H]([C@H](C)C[C@@H]2CC[C@@H](OCCO)[C@H](OC)C2)CC(=O)[C@H](C)/C=C(\C)[C@@H](O)[C@@H](OC)C(=O)[C@H](C)C[C@H](C)/C=C/C=C/C=C/1C [everolimus]	%	-4
CO[C@H]1C[C@@H]2CC[C@@H](C)[C@@](O)(O2)C(=O)C(=O)N2CCCC[C@H]2C(=O)O[C@H]([C@H](C)C[C@@H]2CC[C@@H](OC(=O)C(C)(CO)CO)[C@H](OC)C2)CC(=O)[C@H](C)/C=C(\C)[C@@H](O)[C@@H](OC)C(=O)[C@H](C)C[C@H](C)/C=C/C=C/C=C/1C [temsirolimus]	%	-0.859
CC(C)(C)c1nc(-c2cccc(NS(=O)(=O)c3c(F)cccc3F)c2F)c(-c2ccnc(N)n2)s1 [dabrafenib]	%	4
Cc1cn(-c2cc(NC(=O)c3ccc(C)c(Nc4nccc(-c5cccnc5)n4)c3)cc(C(F)(F)F)c2)cn1 [nilotinib]	%	11

Could you now look at the following molecule, please?
Look at this molecule and give its reported %-inhibition of MARK3. C[C@@H](Oc1cc(-c2cnn(C3CCNCC3)c2)cnc1N)c1c(Cl)ccc(F)c1Cl [crizotinib]
41
